Assay: amyloid nucleation score (Sup35N fusion, yeast selection) (log enrichment); library NNK1; higher = more nucleation; inactive = no reads after selection;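 also: zero at mode of non-aggregating sequences after 7 days selection at 30°C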
Measurement kind: amyloid nucleation score
Simply state the number, no unit and no words.

Some sequences with known amyloid nucleation score results, for comparison:
RAMVLCGGCTWPAREDNEKV: 0.506
FSHIELLERAVLMSRVRFLW: -0.514
GRFVEMRLEHYRLNSRENSL: -1.75
NPEILCRLKIPFSSCLDSAS: 0.341
FYVVRGHGHCWM: 0.68

Input line: Looking for the measured amyloid nucleation score of `CLTKEYVRGFLNPGRHRTRQ` , can you help?
Output line: -0.271

Input line: What would you report for `CDLLRSLTVS` ?
Output line: 0.946

Input line: What would you report for `TLKFGSYQAVRLSHSGKPDD` ?
Output line: 2.55

Input line: What would you report for `LPDNSIYRYLSY` ?
Output line: 0.149

Input line: What would you report for `TMYVALFLFLA` ?
Output line: 2.54

----------
Test: amyloid nucleation score (Sup35N fusion, yeast selection) (log enrichment); library NNK3; higher = more nucleation; inactive = no reads after selection
Measurement kind: amyloid nucleation score

Some substances with known amyloid nucleation score results, for comparison:
SVNNVAWWHYGKMRVNFTFS: -0.552
DFELFSSALGSLSNGHSENV: inactive
YDYYFFNSFNISDIMR: inactive
YSMQVICISCVLRIDIGDVA: 0.89

Input line: Looking for the measured amyloid nucleation score of `DRVDIRATADELGLR` , can you help?
Output line: inactive

Input line: What would you report for `LLKHMSLFVLRSSNR` ?
Output line: inactive

Input line: What would you report for `GGSLGHSRLSKDVSVEESAW` ?
Output line: inactive

Input line: What would you report for `LSKRRTIILGLVELRYSEVE` ?
Output line: inactive

Input line: What would you report for `FSILCKLVLRQLKNGSFYGF` ?
Output line: -0.329

Input line: What would you report for `MGQFVRYLMADSCL` ?
Output line: inactive

Input line: What would you report for `WEGRLDCFSMRWLQMLGSND` ?
Output line: inactive

Input line: What would you report for `KICGNRPGVSRYLVGLDVMC` ?
Output line: inactive

Input line: What would you report for `KDSCCVGSRNAHFECYFEVA` ?
Output line: inactive

Input line: What would you report for `YSFRNSIDAFRLEYKKRYRF` ?
Output line: -0.403

Input line: What would you report for `SVRLSIVAGWFCKIWYSFLL` ?
Output line: inactive

Input line: What would you report for `TRLFRDNFHFLGRSLSATYV` ?
Output line: inactive

Input line: What would you report for `FYLYLDHVKVNWSRS` ?
Output line: 0.989

Input line: What would you report for `VRWYCS` ?
Output line: inactive

Input line: What would you report for `SVGVGNIHTR` ?
Output line: inactive

Input line: What would you report for `HEVLVVIRNLFDFVVFCVLQ` ?
Output line: inactive

----------
Experiment: amyloid nucleation score (Sup35N fusion, yeast selection) (log enrichment); library NNK3; higher = more nucleation; inactive = no reads after selection
Measurement kind: amyloid nucleation score

Some substances with known amyloid nucleation score results, for comparison:
DCCSYRSERA: inactive
SRVNCLARLRSPARLMPMVR: inactive
YFFIPVKW: inactive
WAGGSDPRCNFKCLCVKGFC: inactive
NYLYPKLITYYLTSGLRWII: inactive

Could you now consider this next substance?
Input line: Looking for the measured amyloid nucleation score of `SSDIIHGNDVRSLVRRDRSL` , can you help?
Output line: inactive
